# Tested on: NCI-H322M lung
# assay.summary: NCI-60 one-dose screen, 48 h (100 = growth as untreated, 0 = no growth, -100 = all killed)
# particulars: 10 µM unless noted
Compounds without any hit were thinned out: in the full panel of roughly 83,000, 20% have a hit. Active and inactive are the calls of the source. Rule for the calls: active = growth percent below 10; inactive = the rest.
Each record here notes measured growth.

Some solved cases for reference:
compound | parameter.measured | value.measured
C/C(Cc1ccc(Cl)cc1)=C(/c1ccc(Cl)cc1)c1ccc(OCCN(C)C)cc1 | growth | 91.2% (inactive)
CC(c1ccc(-n2cccn2)cc1)c1cnc(N2CCc3ccc(C(N)=O)cc3C2)s1 (stereo unspecified) | growth | 86.8% (inactive)
CC(=O)Nc1ccc2c(c1)Cc1c(F)cccc1-2 | growth | 112% (inactive)
CC(=O)Nc1ccc(-c2cc3c(NCc4ccc(F)cc4)ncnc3s2)cc1 | growth | 82.7% (inactive)
O=[N+]([O-])c1ccc(-c2cc3c(Nc4ccc(Cl)c(C(F)(F)F)c4)ncnc3s2)cc1 | growth | 20.9% (inactive)

Consider the additional compound presented here.
In plain terms, "CSc1ccc(Cl)c(C(=O)Nc2sccc2C(N)=O)c1" has a documented growth of 124% (inactive)

----------
# System: K-562 leukemia
# assay.summary: NCI-60 one-dose screen, 48 h (100 = growth as untreated, 0 = no growth, -100 = all killed)
# particulars: 10 µM unless noted
The panel holds about 83,000 compounds, 20% with a hit somewhere; the sample as a whole holds those more often.
Each record here notes measured growth.
Record the value in %, omitting the unit from your answer.

Some solved cases for reference:
compound | growth (%)
O[C@H]1CO[C@H]2[C@@H]1OC[C@@H]2Oc1ccc(Nc2nc(Nc3ccc(F)c(Cl)c3)ncc2F)cc1Cl | 115
CCOc1cc(C2C(Cl)C(=O)N2n2cnnc2)ccc1O (stereo not given) | 104
Cc1cc(NS(=O)(=O)c2ccccc2)c(OS(=O)(=O)c2ccccc2)cc1C | 88.8

Let me check: "CCCCCCCCn1cc(C2=C(c3coc4ccc(OC)cc34)C(=O)NC2=O)c2ccccc21" , system K-562 leukemia, measured growth is 121

Let me check: "CCCc1nc2ccccn2c1Nc1ccc(C(=O)NO)cc1" , system K-562 leukemia, measured growth is 89.5

----------
Each record here notes measured growth.
# Test system: UACC-257 melanoma
# assay.summary: NCI-60 one-dose screen, 48 h (100 = growth as untreated, 0 = no growth, -100 = all killed)
# particulars: 10 µM unless noted
About 83,000 compounds went through this panel and 20% of them were active in at least one assay; those are over-represented in the sample as a whole. Calls of active or inactive are those of the source. The calls were made as follows: active = growth percent below 10; inactive = the rest.

In plain terms, "NC(=O)c1c(NC(=O)c2ccc(C(F)(F)F)cc2Cl)sc2c1CCC(=O)C2" has a documented growth of -22.4% (active)

In plain terms, "COc1cccc(-c2cnco2)c1OCc1c(C)c(COc2c(OC)cccc2-c2cnco2)c(C)c(COc2c(OC)cccc2-c2cnco2)c1C" has a documented growth of 58.4% (inactive)

----------
Each record here notes measured growth.
# Test system: DU-145 prostate
# assay.summary: NCI-60 one-dose screen, 48 h (100 = growth as untreated, 0 = no growth, -100 = all killed)
# particulars: 10 µM unless noted
About 83,000 compounds went through this panel and 20% of them were active in at least one assay; those are over-represented in the sample as a whole.
Record the value in %, omitting the unit from your answer.

compound | assayed.system | growth [%]
O=C1C2=C(CCN(Cc3ccccc3)C2)N2CCN=C2N1Cc1ccc(F)cc1F | DU-145 prostate | 32.6
O=C1/C(=C/c2ccc([N+](=O)[O-])cc2)COc2ccc(O)c(O)c21 | DU-145 prostate | -19.1
COc1cccc(/C=C2\COc3ccc(O)cc3C2=O)c1OC | DU-145 prostate | 45.1
CCOC(=O)c1c(C)[nH]c(C(=O)CCC(=O)OC)c1C | DU-145 prostate | 100
O=C1CSC(c2ccccc2)N1c1ccccc1 (stereo unspecified) | DU-145 prostate | 107

In plain terms, "CC(C)n1nc(C#Cc2cccc(O)c2)c2c(N)ncnc21" has a documented growth of -6.9
